System: CaCo2 colorectal cancer cells
Experiment: Anti-proliferative assay, cell-titre luminescent reagent, 72 h (GVK-BIO)
Format: cell-based
Conditions: Homo sapiens, Caco-2, 72 h, 30, 3, 0.3 and 0.03 μM, linear regression (Tables 2-4)
IC50 listing for selected compounds.
The reply should be a number in µM, with the unit left off.

> print(dat)
                                   compound                    test.system  readout  endpoint.result
1  COc1cccc(NC(=O)c2cccc(Cc3ccc4c(c3)c(C)c(C)n4CCCN(C)C)c2)c1 [Compound 4054]  CaCo2 colorectal cancer cells     IC50              5.1
2  Cc1c(C)n(CCCN(C)C)c2ccc(CN3CCN(CCc4ccccc4)CC3)cc12 [Compound 4015]  CaCo2 colorectal cancer cells     IC50              2.9
3  CN(C)CCCn1ccc2cc(Cc3cccc(C(=O)Nc4ccccc4)c3)ccc21 [Compound 4008]  CaCo2 colorectal cancer cells     IC50              5.8

For the next question, use this compound.
Dear colleague, I am looking for the recorded IC50 of the following compound: COc1ccc(NC(=O)c2cccc(Cc3ccc4c(ccn4CCCN(C)C)c3)c2)cc1 [Compound 4046]
3.2

* * *

Test system: SK-Mel-28 melanoma cells
Assay: Anti-proliferative assay, cell-titre luminescent reagent, 72 h (GVK-BIO)
Assay type: cell-based
Conditions: Homo sapiens, SK-MEL-28, 72 h, 30, 3, 0.3 and 0.03 μM, linear regression (Tables 2-4)
Experimental: The ability of compounds 4001, 4002, 4008, 4010, 4011, 4013-4015, 4018, 4026, 4045-4113 and 4115-4127 to inhibit the proliferation of cancer cells representative of neuroblastoma, melanoma, prostate cancer, colorectal cancer, non-small cell lung carcinoma, and triple negative breast cancer was assessed. […] Luminescence was captured using an EnVision multilabel reader and the data for each analogue concentration compared against no treatment control. […]
Listing: IC50 of selected compounds

> print(dat)
                         chemical.structure  readout  endpoint.result
1  Cc1c(C)n(CCCN(C)C)c2ccc(Oc3ccc(C(=O)Nc4ccc5c(c4)OCO5)cc3)cc12     IC50           2.3 µM
2  COc1cccc(NC(=O)c2ccc(Nc3ccc4c(ccn4CCCN(C)C)c3)cc2)c1     IC50           5.4 µM
3  COc1cccc(NC(=O)c2ccc(Cc3ccc4c(ccn4CCCN(C)C)c3)cc2)c1     IC50           2.3 µM

From here, focus on the item given below.
Given the entry Cc1c(C)n(CCCN(C)C)c2ccc(Oc3cccc(C(=O)Nc4cccc(F)c4)c3)cc12 , report its measured IC50.
2.7 µM

* * *

System: SK-Mel-28 melanoma cells
Assay: Anti-proliferative assay, cell-titre luminescent reagent, 72 h (GVK-BIO)
Type: cell-based
Details: Homo sapiens, SK-MEL-28, 72 h, 30, 3, 0.3 and 0.03 μM, linear regression (Tables 2-4)
Catalogue of IC50 values
Please answer in the form of a number followed by its unit of measurement.

Solved cases below.
> print(dat)
                         chemical.structure  endpoint.result
1  CN(C)CCCn1ccc2cc(Nc3cccc(C(=O)Nc4ccc(F)cc4)c3)ccc21           2.5 µM
2  COc1ccc(NC(=O)c2cccc(Oc3ccc4c(ccn4CCCN(C)C)c3)c2)cc1           2.7 µM
3  Cc1c(C)n(CCCN(C)C)c2ccc(Cc3cccc(C(=O)Nc4ccc(F)cc4)c3)cc12           2.6 µM
4  Cc1c(C)n(CCCN(C)C)c2ccc(Cc3cccc(C(=O)Nc4cccc(F)c4)c3)cc12           2.5 µM
5  Cc1c(C)n(CCCN(C)C)c2ccc(Nc3ccc(C(=O)Nc4cccc(F)c4)cc3)cc12           2.8 µM

# ---- query molecule ----
Form field: reported IC50 of COc1ccc(NC(=O)c2ccc(Nc3ccc4c(c3)c(C)c(C)n4CCCN(C)C)cc2)cc1
2.6 µM
